Each entry below lists one item and its recorded FMC63 Binding Score value.
test system: FMC63; assay: CD19 variant binding to anti-CD19 antibody FMC63 (score); conditions: Table 1B, CD19 triple mutants
Sequence (as listed by the source): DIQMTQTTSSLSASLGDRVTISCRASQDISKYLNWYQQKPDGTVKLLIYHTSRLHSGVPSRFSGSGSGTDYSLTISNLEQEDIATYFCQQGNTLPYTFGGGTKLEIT
Sequence (as listed by the source): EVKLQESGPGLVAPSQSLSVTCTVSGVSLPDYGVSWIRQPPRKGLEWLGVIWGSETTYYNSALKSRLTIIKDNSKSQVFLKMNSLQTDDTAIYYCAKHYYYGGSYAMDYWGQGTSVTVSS
Number, no unit, nothing else.

[[record]]
molecule = "W62E/F64R/F66R: CD19 variant (protein) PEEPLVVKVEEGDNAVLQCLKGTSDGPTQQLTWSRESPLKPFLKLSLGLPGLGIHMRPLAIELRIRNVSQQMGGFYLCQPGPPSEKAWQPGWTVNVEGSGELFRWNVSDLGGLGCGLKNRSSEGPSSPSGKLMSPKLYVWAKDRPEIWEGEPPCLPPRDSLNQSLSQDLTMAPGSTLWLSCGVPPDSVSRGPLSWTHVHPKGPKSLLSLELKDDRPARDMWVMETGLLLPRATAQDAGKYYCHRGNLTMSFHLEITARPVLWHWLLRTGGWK"
property_label = "FMC63 Binding Score"
recorded_value = 12.4


Request: May I ask what FMC63 Binding Score has been recorded for E224G/G226A/L228T: CD19 variant (protein) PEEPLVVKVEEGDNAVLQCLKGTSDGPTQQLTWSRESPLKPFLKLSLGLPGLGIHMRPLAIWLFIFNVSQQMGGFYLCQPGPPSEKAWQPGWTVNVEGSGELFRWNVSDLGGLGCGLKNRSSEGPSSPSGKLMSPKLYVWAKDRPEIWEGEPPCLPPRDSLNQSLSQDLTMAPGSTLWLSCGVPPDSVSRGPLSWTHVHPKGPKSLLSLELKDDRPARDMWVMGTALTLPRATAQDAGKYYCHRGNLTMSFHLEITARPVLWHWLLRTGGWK ?
Response: 12.7
